- Assay Details: in vivo
- Study Conditions: male, Merino, sheep, in vivo
Metric Name: AUC(0-t) (ng·h/mL)
The reply should contain only the number, in ng·h/mL.

# input molecule: `C[C@H]1C[C@H]2[C@@H]3CCC4=CC(=O)C=C[C@]4(C)[C@@]3(F)[C@@H](O)C[C@]2(C)[C@@]1(O)C(=O)CO` ; wanted: its AUC(0-t)
33.5

====

- Assay Details: in vivo
- Study Conditions: male, Merino, sheep, in vivo, Betamethasone plasma concentration, Mean
Metric Name: concentration at 72 h

Using the record for `C[C@H]1C[C@H]2[C@@H]3CCC4=CC(=O)C=C[C@]4(C)[C@@]3(F)[C@@H](O)C[C@]2(C)[C@@]1(O)C(=O)CO` , report its concentration at 72 h.
0.071 ng/mL
